target: Histone deacetylase 8 (Schistosoma mansoni, UniProt A5H660); experiment: Inhibition of Schistosoma mansoni KDAC8 using (FAM)-labeled peptide as substrate after 60 mins by microfluidic assay; conditions: read-out: IC50
pIC50: −log10 of the molar value.
Reported pIC50 is given for each of the following compounds.

compound: CC(C)(C)Oc1ccc(C[C@@H]2N=C(c3ccccc3)c3ccccc3N(CCCCC(=O)NO)C2=O)cc1
pIC50: 4.99
//
compound: CC(C)(C)Oc1ccc(C[C@@H]2N=C(c3ccccc3)c3ccccc3N(CCCCC(=O)O)C2=O)cc1
pIC50: < 4.52
//
compound: CC(C)(C)OC(=O)CC[C@H]1N=C(c2ccccc2)c2ccccc2NC1=O
pIC50: < 4.52
//
compound: O=C1Nc2ccccc2C(c2ccccc2)=N[C@H]1Cc1ccccc1
pIC50: < 4.52
//
compound: COC(=O)CCCCN1C(=O)[C@H](CC(=O)NC(c2ccccc2)(c2ccccc2)c2ccccc2)N=C(c2ccccc2)c2ccccc21
pIC50: < 4.52
//
compound: COC(=O)CCCCN1C(=O)[C@H](CCCCNC(=O)OC(C)(C)C)N=C(c2ccccc2)c2ccccc21
pIC50: < 4.52
//
compound: N[C@H](Cc1ccc(Cl)cc1Cl)C(=O)N1Cc2ccccc2C1
pIC50: 4.54
//
compound: CC(/C=C/C(=O)NO)=C\[C@@H](C)C(=O)c1ccc(N(C)C)cc1 [TRICHOSTATIN]
pIC50: 5.44
//
compound: CC(C)(C)OC[C@@H]1N=C(c2ccccc2)c2ccccc2N(CCCCC(=O)O)C1=O
pIC50: < 4.52
//
compound: CSCC[C@@H]1N=C(c2ccccc2)c2ccccc2NC1=O
pIC50: < 4.52
//
compound: CC(C)(C)OC(=O)CC[C@@H]1N=C(c2ccccc2)c2ccccc2N(CCCCC(=O)NO)C1=O
pIC50: < 4.52
//
compound: CSCC[C@@H]1N=C(c2ccccc2)c2ccccc2N(CCCCC(=O)O)C1=O
pIC50: < 4.52
//
compound: O=C(O)CCCCN1C(=O)[C@H](CCC(=O)O)N=C(c2ccccc2)c2ccccc21
pIC50: < 4.52
//
compound: COC(=O)CCCCN1C(=O)[C@H](COC(C)(C)C)N=C(c2ccccc2)c2ccccc21
pIC50: < 4.52
//
compound: CC(C)(C)OC(=O)n1c(C[C@@H]2N=C(c3ccccc3)c3ccccc3N(CCCCC(=O)NO)C2=O)cc2ccccc21
pIC50: < 4.52
//
compound: Cc1c(C)c(S(=O)(=O)NC(=N)NCCC[C@@H]2N=C(c3ccccc3)c3ccccc3N(CCCCC(=O)NO)C2=O)c(C)c2c1OC(C)(C)C2
pIC50: < 4.52
//
compound: O=C(C[C@H]1N=C(c2ccccc2)c2ccccc2NC1=O)NO
pIC50: < 4.52
//
compound: CC(C)(C)SC[C@H]1N=C(c2ccccc2)c2ccccc2N(CCCCC(=O)NO)C1=O
pIC50: < 4.52

###

Target: Histone deacetylase 8 (Schistosoma mansoni)
Sequence (A5H660 whole entry): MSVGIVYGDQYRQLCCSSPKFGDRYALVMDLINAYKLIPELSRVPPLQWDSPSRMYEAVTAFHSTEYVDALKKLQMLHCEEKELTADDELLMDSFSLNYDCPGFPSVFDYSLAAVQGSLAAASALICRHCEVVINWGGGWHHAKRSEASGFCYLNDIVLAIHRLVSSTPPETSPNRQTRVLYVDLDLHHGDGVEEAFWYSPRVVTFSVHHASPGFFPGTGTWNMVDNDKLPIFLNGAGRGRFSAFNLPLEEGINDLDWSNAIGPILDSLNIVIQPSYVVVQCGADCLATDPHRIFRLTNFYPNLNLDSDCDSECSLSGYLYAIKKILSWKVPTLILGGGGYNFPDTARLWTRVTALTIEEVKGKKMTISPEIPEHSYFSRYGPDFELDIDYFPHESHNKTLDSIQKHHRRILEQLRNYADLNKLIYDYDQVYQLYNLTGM
Experiment: Inhibition of Schistosoma mansoni KDAC8 using (FAM)-labeled peptide as substrate after 60 mins by microfluidic assay
Details: read-out: pIC50 (converted)
readoutKind: log10(IC50) (log10 of the value in nM)

compound: O=C(CCCCCCC(=O)Nc1cccc(C(=O)O)c1)NO
log10(IC50): 3.28
--
compound: CN(C)c1ccc(C(=O)NCCCCCCC(=O)NO)cc1
log10(IC50): 3.50
--
compound: O=C(CCCCCC(=O)N/N=C/c1ccc(-c2ccccc2)cc1)NO
log10(IC50): 2.95
--
compound: C[C@H]1Sc2ccc(C(=O)NO)cc2NC1=O
log10(IC50): 3.17
--
compound: Cn1cc(C2=C(c3cn(CCCCCC(=O)NO)c4ccccc34)C(=O)NC2=O)c2ccccc21
log10(IC50): 3.15
--
compound: CN(C)Nc1cccc(C(=O)NO)c1
log10(IC50): 3.20
--
compound: CN(C)c1ccc(C(=O)NCc2ccc(C(=O)NO)cc2)cc1
log10(IC50): 3.46
--
compound: O=C(NO)c1cccc(NN(Cc2ccccc2)Cc2ccccc2)c1
log10(IC50): 3.97
--
compound: CCCCCC(=O)NO
log10(IC50): 3.40
--
compound: Cc1ccc(CN(Cc2ccc(C(=O)NO)cc2)S(=O)(=O)c2ccc(F)c(C)c2)cc1
log10(IC50): 3.75
--
compound: CN(C)c1ccc(C(=O)NCC2CCC(C(=O)NO)CC2)cc1 (stereo unspecified)
log10(IC50): 4.08
--
compound: O=C(NO)C1CCN(S(=O)(=O)c2ccc3c(c2)CCC3)CC1
log10(IC50): 3.48
--
compound: COC(=O)[C@H](Cc1ccccc1)NC(=O)CCCCCCCCC(=O)NO
log10(IC50): 2.90
--
compound: O=C(NO)c1sc2ccccc2c1Cl
log10(IC50): 3.64
--
compound: O=C(CS)NCCCCCC(=O)Nc1ccccc1
log10(IC50): 4.70
--
compound: CN1CCc2c(c3ccccc3n2Cc2ccc(C(=O)NO)cc2)C1 [TUBASTATIN A]
log10(IC50): 3.17
